Origin of values: patent US6825197B2

Hi there, I'd appreciate the recorded pIC50 for every entry that follows.
Target: recombinant human PDE5 (Homo sapiens, UniProt O76074)
Assay: Inhibitory effect on cGMP-PDE (PDE5 inhibition, one-step assay)
Conditions: in vitro test; human recombinant PDE5, 0.15 μM 8-[H3]-cGMP, 30 minutes incubation; read-out: IC50 values versus PDE5
Just the number, please; pIC50 means minus log10 of the concentration in mol/L.

Lookup: Fetch value of pIC50 on recombinant human PDE5 (Homo sapiens, UniProt O76074) for COc1ccc(CC(=O)N2CCN3C(=O)[C@H]4Cc5c([nH]c6ccccc56)[C@@H](c5ccc6c(c5)OCO6)N4C(=O)C3C2)cc1OC (some centres unmarked) [Example 3] .
Found: 8.41

Lookup: Give recombinant human PDE5 (Homo sapiens, UniProt O76074) pIC50 for the following compound: O=C1[C@H]2Cc3c([nH]c4ccccc34)[C@@H](c3ccc4c(c3)OCO4)N2C(=O)C2CNCCN12 (mixture of isomers) [Example 1]
Found: 8.77
